# Target system: T1, EtgA residues 18–152 with C-terminal 6xHis-tag (enteropathogenic Escherichia coli)
# T1 chain: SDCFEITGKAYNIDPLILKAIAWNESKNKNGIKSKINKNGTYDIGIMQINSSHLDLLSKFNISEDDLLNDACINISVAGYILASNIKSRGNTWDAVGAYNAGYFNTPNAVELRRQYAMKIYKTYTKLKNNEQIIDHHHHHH
# Measurement description: MST
Assay metric: Kd (µM)
Answer in µM, number only, no unit symbol.

Fill in the blank: the reported Kd of TAGVSSPEQVLIEEIKKRHLAT [EscI peptide comprising EscI residues 66–87] is ____.
385
